# TARGET OR SYSTEM: Protein farnesyltransferase (Rattus norvegicus, UniProt Q02293+Q04631)
# ASSAY NAME: Inhibition of rat brain farnesyltransferase in 50 mM HEPES buffer
This listing pairs molecules with measured IC50.
A bare number is not enough; add the unit after it.

MOLECULE | IC50
C[C@@H](NC(=O)[C@H](Cc1c[nH]c2ccccc12)NC(=O)[C@H](COCc1ccccc1)NC(=O)[C@H](Cc1ccc(OCc2ccccc2)cc1)NC(=O)[C@H](Cc1c[nH]cn1)NC(=O)OCc1ccccc1)C(N)=O (single isomer, unassigned) | 1600 nM
C[C@H](NC(=O)[C@@H](Cc1c[nH]c2ccccc12)NC(=O)[C@@H](COCc1ccccc1)NC(=O)[C@@H](Cc1ccc(OP(=O)(O)O)cc1)NC(=O)[C@@H](Cc1c[nH]cn1)NC(=O)OCc1ccccc1)C(N)=O | 6 nM
C[C@@H](NC(=O)[C@H](Cc1c[nH]c2ccccc12)NC(=O)[C@H](COCc1ccccc1)NC(=O)[C@H](Cc1ccc(O)cc1)NC(=O)[C@H](Cc1c[nH]cn1)NC(=O)OCc1ccccc1)C(N)=O (single isomer, unassigned) | 510 nM

Please give the documented IC50 of "C[C@H](NC(=O)[C@@H](Cc1c[nH]c2ccccc12)NC(=O)[C@@H](COP(=O)(O)O)NC(=O)[C@@H](Cc1ccc(OCc2ccccc2)cc1)NC(=O)[C@@H](Cc1cnc[nH]1)NC(=O)OCc1ccccc1)C(N)=O"
660 nM

Please give the documented IC50 of CCOP(=O)(Cc1ccc(CC(NC(=O)[C@@H](Cc2cnc[nH]2)NC(=O)OCc2ccccc2)C(=O)N[C@H](COCc2ccccc2)C(=O)N[C@H](Cc2c[nH]c3ccccc23)C(=O)N[C@@H](C)C(N)=O)cc1)OCC (stereo partly specified)
75 nM

Please give the documented IC50 of C[C@H](NC(=O)[C@@H](Cc1c[nH]c2ccccc12)NC(=O)[C@@H](COCc1ccccc1)NC(=O)C(Cc1ccc(CP(=O)(O)O)cc1)NC(=O)[C@@H](Cc1cnc[nH]1)NC(=O)OCc1ccccc1)C(N)=O (stereo partly specified)
190 nM
